Item-by-item account of SPOT intensity
Target: T1, Bbc1, P47068
T1 sequence (P47068 1-78, looked up): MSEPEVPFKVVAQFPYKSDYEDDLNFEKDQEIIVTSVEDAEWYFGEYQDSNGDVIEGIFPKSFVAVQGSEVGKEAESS
Test: SPOT array
Details: median of control spots 796

Request the reported SPOT intensity associated with ITHRLRISIPGITGR
24

Request the reported SPOT intensity associated with LKQRFFLMFPKSIIW
23
